# Tested on: HepG2
# ASSAY PROTOCOL: Cytotoxicity against human HepG2 cells assessed as compound concentration causing changes in nuclear morphology by Cell Health assay
# Format: cell-based
READOUT NAME: Activity (µM)

compound="Cc1c(CN2CCOCC2)cc(-c2ccc(C(C)C)cc2)n1CC1CCCO1 (stereo unspecified)" unit_of_measure=µM limit_operator== readout_value=40
compound=Cc1c(CN2CCOCC2)cc(-c2ccc(C(C)C)cc2)n1-c1ccc(F)cn1 unit_of_measure=µM limit_operator== readout_value=50
compound=Cc1c(CN2CCOCC2)cc(-c2ccc(C(C)C)cc2)n1-c1ccc(F)cc1 unit_of_measure=µM limit_operator=> readout_value=40
compound=Cc1c(CN2CCOCC2)cc(-c2ccc(C(C)C)cc2)n1C1CCC1 unit_of_measure=µM limit_operator== readout_value=25
compound=Cc1c(CN2CCOCC2)cc(-c2ccc(C(C)C)cc2)n1C(C)C unit_of_measure=µM limit_operator== readout_value=25
compound=Cc1cc(Cl)ccc1-c1cc(CN2CCOCC2)c(C)n1-c1ccc(F)cc1 unit_of_measure=µM limit_operator=> readout_value=200
compound=COCCCn1c(-c2ccc(C(C)C)cc2)cc(CN2CCOCC2)c1C unit_of_measure=µM limit_operator== readout_value=32
compound=Cc1c(CN2CCOCC2)cc(-c2ccc(C(C)C)cc2)n1CC(C)(C)O unit_of_measure=µM limit_operator== readout_value=50
compound=Cc1c(CN2CCOCC2)cc(-c2ccc(C(C)C)cc2)n1C1CC1 unit_of_measure=µM limit_operator== readout_value=40
compound=Cc1c(CN2CCOCC2)cc(-c2ccc(C(C)C)cc2)n1C1COC1 unit_of_measure=µM limit_operator== readout_value=80
compound="Cc1c(CN2CCOCC2)cc(-c2ccc(C(C)C)cc2)n1C1CCCOC1 (stereo unspecified)" unit_of_measure=µM limit_operator=> readout_value=200

---

# ASSAY PROTOCOL: Cytotoxicity against human HepG2 cells incubated for 48 hrs by Cell-titer Glo assay
# Format: cell-based
# CONDITION DESCRIPTION: read-out: TC50
READOUT NAME: CC50 at 48 h (µM)

molecule=Cc1c(CN2CCOCC2)cc(-c2ccc(C(C)C)cc2)n1-c1ccc(F)cn1 readout_name="CC50 at 48 h" limit_operator== readout_value=20
molecule=Cc1c(CN2CCOCC2)cc(-c2ccc(C(C)C)cc2)n1CCC(=O)O readout_name="CC50 at 48 h" limit_operator=> readout_value=100
molecule=Cc1c(CN2CCOCC2)cc(-c2ccc(C(F)(F)F)cc2)n1-c1ccc(F)cc1 readout_name="CC50 at 48 h" limit_operator=> readout_value=100
molecule="Cc1c(CN2CCOCC2)cc(-c2ccc(C(C)C)cc2)n1CC1CCCO1 (centres undefined)" readout_name="CC50 at 48 h" limit_operator== readout_value=32
molecule=Cc1c(CN2CCOCC2)cc(-c2ccc(C(C)C)cc2)n1C1CCCCC1 readout_name="CC50 at 48 h" limit_operator=> readout_value=100
molecule="Cc1c(CN2CCOCC2)cc(-c2ccc(C(C)C)cc2)n1C1CCCC(O)C1 (centres undefined)" readout_name="CC50 at 48 h" limit_operator== readout_value=20
molecule=Cc1c(CN2CCOCC2)cc(-c2ccc(C(F)(F)F)cc2)n1C(C)C readout_name="CC50 at 48 h" limit_operator== readout_value=20
molecule=Cc1c(CN2CCOCC2)cc(-c2ccc(C(C)C)cc2)n1C1CCC1 readout_name="CC50 at 48 h" limit_operator== readout_value=20
molecule=Cc1c(CN2CCOCC2)cc(-c2ccc(Cl)cn2)n1-c1ccc(F)cc1 readout_name="CC50 at 48 h" limit_operator=> readout_value=100
molecule=Cc1cc(CN2CCOCC2)c(C)n1-c1ccc(F)cc1 readout_name="CC50 at 48 h" limit_operator=> readout_value=100
molecule=Cc1c(CN2CCOCC2)cc(-c2ccc(C(C)C)cc2)n1CC1CCOCC1 readout_name="CC50 at 48 h" limit_operator=> readout_value=100
molecule="Cc1c(CN2CCOCC2)cc(-c2ccc(C(C)C)cc2)n1C1CCCOC1 (centres undefined)" readout_name="CC50 at 48 h" limit_operator== readout_value=50
molecule=Cc1c(CN2CCOCC2)cc(-c2ccc(C(C)C)cc2)n1-c1cccc(C(=O)O)c1 readout_name="CC50 at 48 h" limit_operator=> readout_value=100
molecule=Cc1c(CN2CCOCC2)cc(-c2ccc(C(C)C)cc2)n1C1CCN(C)CC1 readout_name="CC50 at 48 h" limit_operator== readout_value=20
molecule=Cc1c(CN2CCOCC2)cc(-c2ccc(C(C)C)cc2)n1C1COC1 readout_name="CC50 at 48 h" limit_operator== readout_value=80
molecule=Cc1c(CN2CCOCC2)cc(-c2ccc(C(C)C)cc2)n1CCCC(=O)O readout_name="CC50 at 48 h" limit_operator=> readout_value=100
molecule=Cc1c(CN2CCOCC2)cc(-c2ccc(C(C)C)cc2)n1C(C)C readout_name="CC50 at 48 h" limit_operator== readout_value=20
molecule=Cc1c(CN2CCOCC2)cc(-c2ccc(C(C)C)cc2)n1Cc1ccc(F)cc1 readout_name="CC50 at 48 h" limit_operator== readout_value=20
molecule=Cc1c(CN2CCOCC2)cc(-c2ccc(C(F)(F)F)cc2)n1C1CCCCC1 readout_name="CC50 at 48 h" limit_operator=> readout_value=100
